Test: Inhibition of platelet aggregation using adenosine diphosphate (ADP) as activating agent in human platelet rich plasma PRP
measurement_label: pEC50
Answers are plain numbers, as −log10 of the molar value.

The reported pEC50 of the molecule `COC(=O)CCCOc1ccc2nc3[nH]c(=O)[nH]c3cc2c1` was 7.08

====

Experiment: Inhibition of platelet aggregation using Adenosine diphosphate (ADP) as activating agent in rabbit platelet rich plasma (PRP)
Recorded EC50 determines the group label, using zone 1 (below 0.2 µM), zone 2 (0.2 µM to below 0.9 µM), zone 3 (0.9 µM or more)

Answered cases to consult:
GET /class?item= `COC(=O)CN(C(=O)CCCOc1ccc2nc3[nH]c(=O)[nH]c3cc2c1)C1CCCCC1`
zone 1

GET /class?item= `CC(=O)OCCOc1ccc2nc3[nH]c(=O)[nH]c3cc2c1`
zone 2

GET /class?item= `COC(=O)CCCCOc1ccc2nc3[nH]c(=O)n(C)c3cc2c1`
zone 3

GET /class?item= `CCOC(=O)C=Cc1ccc2nc3[nH]c(=O)[nH]c3cc2c1`
zone 2

GET /class?item= `O=C(CCCOc1ccc2nc3[nH]c(=O)[nH]c3cc2c1)NC1CCCCC1`
zone 1

Others:
GET /class?item= `O=c1[nH]c2cc3cc(CCCCCO)ccc3nc2[nH]1`
zone 3

GET /class?item= `CN(C(=O)CCCOc1ccc2nc3[nH]c(=O)[nH]c3cc2c1)C1CCCCCC1`
zone 1

GET /class?item= `COC(=O)CCCOc1ccc2nc3c(cc2c1)[nH]c(=O)n3C`
zone 2

GET /class?item= `CNC(=O)CCCOc1ccc2nc3[nH]c(=O)[nH]c3cc2c1`
zone 3

GET /class?item= `CC(=O)OCCCCOc1ccc2nc3[nH]c(=O)[nH]c3cc2c1`
zone 3

GET /class?item= `Cn1c(=O)[nH]c2nc3ccc(OCCCC(=O)NC4CCCCC4)cc3cc21`
zone 1

====

Experiment: Inhibition of platelet aggregation using adenosine diphosphate (ADP) as activating agent in human platelet rich plasma (PRP)
Could you please report measured log10 of EC50 for the items listed next?
Friendly reminder: values = log10 of EC50, unit µM.

Example compounds with recorded log10 of EC50:
The reported log10 of EC50 of the compound `Cn1c(=O)[nH]c2nc3ccc(OCCCC(=O)NC4CCCCC4)cc3cc21` was 0.89

The reported log10 of EC50 of the compound `CN(C(=O)CCCCCOc1ccc2nc3[nH]c(=O)[nH]c3cc2c1)C1CCCCC1` was -0.27

The reported log10 of EC50 of the compound `CNC(=O)CCCOc1ccc2nc3[nH]c(=O)[nH]c3cc2c1` was 1.85

The reported log10 of EC50 of the compound `O=C(CCCOc1ccc2nc3[nH]c(=O)[nH]c3cc2c1)NC12C[C@H]3C[C@@H](C1)C[C@@H](C2)C3` was -1.70

Consider the additional compound presented here.
The reported log10 of EC50 of the compound CC(O)CCCOc1ccc2nc3[nH]c(=O)[nH]c3cc2c1 (stereo not given) was -1.00

====

Could you please report measured pEC50 for the items listed next?
Assay: Inhibition of platelet aggregation using Adenosine diphosphate (ADP) as activating agent in rabbit platelet rich plasma (PRP)
Numbers only, as −log10 of the molar value.

Example compounds with recorded pEC50:
The reported pEC50 of the compound `O=C(CCCCc1ccc2nc3[nH]c(=O)[nH]c3cc2c1)NC12C[C@H]3C[C@@H](C1)C[C@@H](C2)C3` was 6.02

The reported pEC50 of the compound `CN(C(=O)CCCCOc1ccc2nc3[nH]c(=O)[nH]c3cc2c1)C1CCCCCC1` was 8.30

The reported pEC50 of the compound `O=c1[nH]c2cc3cc(OCCCCS(=O)(=O)c4ccccc4)ccc3nc2[nH]1` was 6.74

Dear colleague, could you please provide pEC50 for the compounds listed below?
1. O=c1[nH]c2cc3cc(OCCCc4nnn[nH]4)ccc3nc2[nH]1
2. CCOC(=O)CCCOc1ccc2nc3[nH]c(=O)[nH]c3cc2c1
3. O=C(O)CCCCc1ccc2nc3[nH]c(=O)[nH]c3cc2c1
4. O=C(CCCOc1ccc2nc3[nH]c(=O)[nH]c3cc2c1)NC1CCCCCC1
5. O=C(O)C1CCN(C(=O)CCCOc2ccc3nc4[nH]c(=O)[nH]c4cc3c2)CC1
6. CN(C(=O)CCCCCOc1ccc2nc3[nH]c(=O)[nH]c3cc2c1)C1CCCCC1

1: 5.20; 2: 6.20; 3: 4.20; 4: 6.41; 5: 6.42; 6: 7.70

Dear colleague, could you please provide pEC50 for the compounds listed below?
1. N#CCCCOc1ccc2nc3[nH]c(=O)[nH]c3cc2c1
2. COC(=O)CCCOc1ccc2nc3[nH]c(=O)[nH]c3cc2c1
3. CN(C(=O)CCCOc1ccc2c(c1)CN1CC(=O)NC1=N2)C1CCCCC1
4. CN(C(=O)CCCCc1ccc2nc3[nH]c(=O)[nH]c3cc2c1)C1CCCCC1

1. 6.74
2. 7.18
3. 7.00
4. 6.68

Dear colleague, could you please provide pEC50 for the compounds listed below?
1. O=C(CCCOc1ccc2nc3[nH]c(=O)[nH]c3cc2c1)NC12C[C@H]3C[C@@H](C1)C[C@@H](C2)C3
2. CN(C(=O)CCCCOc1ccc2nc3[nH]c(=O)n(C)c3cc2c1)C1CCCCCC1

[6.92, 6.85]

Dear colleague, could you please provide pEC50 for the compounds listed below?
1. Cn1c(=O)[nH]c2cc3cc(OCCCC(=O)O)ccc3nc21
2. COC(=O)CCCCc1ccc2nc3[nH]c(=O)[nH]c3cc2c1
3. O=C(O)CN(C(=O)CCCOc1ccc2nc3[nH]c(=O)[nH]c3cc2c1)C1CCCCC1

1. 5.78
2. 6.37
3. 6.04

Dear colleague, could you please provide pEC50 for the compounds listed below?
1. O=C(O)CCCOc1ccc2c(c1)CN1CC(=O)NC1=N2
2. CN(C(=O)CCCOc1ccc2nc3c(cc2c1)[nH]c(=O)n3C)C1CCCCC1

[5.16, 6.28]

====

Could you please report measured log10 EC50 for the items listed next?
Experiment: Inhibition of platelet aggregation using adenosine diphosphate (ADP) as activating agent in human platelet rich plasma (PRP)
Friendly reminder: values = log10 of EC50, unit µM.

The reported log10 EC50 of the compound `NC(=O)CCCOc1ccc2nc3[nH]c(=O)[nH]c3cc2c1` was 0.48

Dear colleague, could you please provide log10 EC50 for the compounds listed below?
1. COC(=O)CN(C(=O)CCCOc1ccc2nc3[nH]c(=O)[nH]c3cc2c1)C1CCCCC1
2. COC(=O)CCCCc1ccc2nc3[nH]c(=O)[nH]c3cc2c1
3. CN(C(=O)CCCOc1ccc2c(c1)CN1CC(=O)NC1=N2)C1CCCCC1
4. O=C(O)C1CCN(C(=O)CCCOc2ccc3nc4[nH]c(=O)[nH]c4cc3c2)CC1
5. O=C(CCCCc1ccc2nc3[nH]c(=O)[nH]c3cc2c1)N1CCCCC1
6. O=C(CCCCc1ccc2nc3[nH]c(=O)[nH]c3cc2c1)NC12C[C@H]3C[C@@H](C1)C[C@@H](C2)C3
7. CN(C(=O)CCCCOc1ccc2nc3[nH]c(=O)n(C)c3cc2c1)C1CCCCCC1

1: -3.15; 2: 0.48; 3: -0.36; 4: 1.66; 5: 1.19; 6: 0.72; 7: -0.27

====

Test: Inhibition of platelet aggregation using Adenosine diphosphate (ADP) as activating agent in rabbit platelet rich plasma (PRP)
measurement_label: EC50 (nM)
Give bare numbers, in nM.

Example compounds with recorded EC50:
The reported EC50 of the compound `CCOCCOc1ccc2nc3[nH]c(=O)[nH]c3cc2c1` was 4840

The reported EC50 of the compound `Cn1c(=O)[nH]c2nc3ccc(OCCCC(=O)N4CCCCC4)cc3cc21` was 10900

Dear colleague, could you please provide EC50 for the compounds listed below?
1. CN(C(=O)CCCOc1ccc2nc3[nH]c(=O)n(C)c3cc2c1)C1CCCCCC1
2. CN(C(=O)CCCCOc1ccc2nc3[nH]c(=O)n(C)c3cc2c1)C1CCCCC1
3. COC(=O)CCCCCOc1ccc2nc3[nH]c(=O)[nH]c3cc2c1

1: 70; 2: 150; 3: 90

====

Assay: Inhibition of platelet aggregation using Adenosine diphosphate (ADP) as activating agent in rabbit platelet rich plasma (PRP)
measurement_label: pEC50
One number for each entry, as −log10 of the molar value.

The reported pEC50 of the molecule `N#CCCCCOc1ccc2nc3[nH]c(=O)[nH]c3cc2c1` was 5.88

The reported pEC50 of the molecule `CN(C(=O)CCCCOc1ccc2nc3[nH]c(=O)[nH]c3cc2c1)C1CCCCC1` was 8.10

The reported pEC50 of the molecule `NC(=O)CCCOc1ccc2nc3[nH]c(=O)[nH]c3cc2c1` was 5.22

The reported pEC50 of the molecule `COC(=O)CCCCOc1ccc2nc3[nH]c(=O)[nH]c3cc2c1` was 6.02

The reported pEC50 of the molecule `CN(C(=O)CCCOc1ccc2nc3c(cc2c1)n(C)c(=O)n3C)C1CCCCC1` was 4.57

Dear colleague, could you please provide pEC50 for the molecules listed below?
1. O=C(CCCCc1ccc2nc3[nH]c(=O)[nH]c3cc2c1)N1CCCCC1
2. O=C(O)COc1ccc2nc3[nH]c(=O)[nH]c3cc2c1
3. O=c1[nH]c2cc3cc(CCCO)ccc3nc2[nH]1
4. O=c1[nH]c2cc3cc(OCCCO)ccc3nc2[nH]1
5. CCOC(=O)COc1ccc2nc3[nH]c(=O)[nH]c3cc2c1

[6.38, 5.72, 5.61, 6.11, 4.61]
